- System: SK-OV-3 ovarian
- assayRemarks: NCI-60 one-dose screen, 48 h
- conditionNotes: 10 µM unless noted
This is part of a sample that, as a whole, favours compounds with a hit. Of some 83,000 tested, about 20% had one in any assay. Activity calls are given as the source filed them. How the source made its calls: active means growth percent below 10; inactive means the rest.
Parameter call: string, one of active, inactive

Examples with answers:
Ask | Hi, sorry to bother you, what did the test record for OC(c1ccccc1)C(NC(Cc1ccccc1)c1ccccc1)c1ccccc1 (stereo unspecified) ?
Reply | inactive

Ask | Hi, sorry to bother you, what did the test record for BrCCCc1n(Cc2ccc3ccccc3c2)c2ccccc2[n+]1Cc1ccc2ccccc2c1 ?
Reply | active

Ask | Hi, sorry to bother you, what did the test record for CCCCCCNC(=O)Oc1ccc(/C(=C(\C)c2ccc(Cl)cc2)c2ccc(OCCCN(C)C)cc2)cc1 ?
Reply | inactive

Ask | Hi, sorry to bother you, what did the test record for COc1ccc(C2C(C#N)=C(N)Oc3c2sc2c(C)cccc32)cc1 (stereo unspecified) ?
Reply | inactive

Further cases:
Ask | Hi, sorry to bother you, what did the test record for C/C=C(\C)C(=O)N[C@H]1[C@@H](OC(C)=O)C[C@]2(C)C3CC[C@@]4(C)C(CC[C@@H]4C(C)N(C)C)C3CCC2[C@H]1O (stereo partly specified) ?
Reply | inactive

Ask | Hi, sorry to bother you, what did the test record for COc1ccc2sc3c(NCCCN(C)C)nc4ccccc4c3c(=O)c2c1 ?
Reply | inactive

Ask | Hi, sorry to bother you, what did the test record for COC1=C(C)C(=O)c2c(c(CCCl)c3n2CCC3O)C1=O (stereo unspecified) ?
Reply | active

Ask | Hi, sorry to bother you, what did the test record for Cc1ccc(S(=O)(=O)N/N=C/C2(c3ccccc3)CC2)cc1 ?
Reply | inactive

Ask | Hi, sorry to bother you, what did the test record for O=C(CSc1nccc(Nc2ccc(S(=O)(=O)Nc3nccs3)cc2)n1)c1ccc(C(F)(F)F)cc1 ?
Reply | inactive

Ask | Hi, sorry to bother you, what did the test record for CSc1nc2ccc(C)cc2cc1/C=N/O ?
Reply | inactive

Ask | Hi, sorry to bother you, what did the test record for Cc1ccc(C(CC(=O)O)c2c(C)[nH][nH]c2=O)cc1 (stereo unspecified) ?
Reply | inactive

Ask | Hi, sorry to bother you, what did the test record for CN(C)CCS(=O)(=O)Nc1cc(-c2ccc3ncc(C#N)c(Nc4ccc(F)c(Cl)c4)c3c2)cnc1Cl ?
Reply | active

Ask | Hi, sorry to bother you, what did the test record for NCCCNc1nc2ccccc2c2c(=O)c3cc(F)cc(Cl)c3sc12 ?
Reply | inactive

Ask | Hi, sorry to bother you, what did the test record for CCN1C(=O)N(CC)C2Nn3c(s/c(=C4\C(=O)N(CC(C)C)c5ccccc54)c3=O)=NC21 (stereo unspecified) ?
Reply | inactive

Ask | Hi, sorry to bother you, what did the test record for CCOC(=O)c1c2c(n(-c3ccc(C#N)cc3)c1-c1ccccc1)C=CCC2 ?
Reply | inactive

Ask | Hi, sorry to bother you, what did the test record for Cc1cccc2c3c(sc12)C(c1ccc(Cl)cc1)C(C#N)=C(/N=C/c1ccc(Cl)cc1)O3 (stereo unspecified) ?
Reply | inactive

Ask | Hi, sorry to bother you, what did the test record for N#Cc1c(-c2ccc(Cl)cc2)nc(NCCO)[nH]c1=O ?
Reply | inactive

Ask | Hi, sorry to bother you, what did the test record for c1ccc(OCc2nnc(-c3ccc(Oc4ccccc4)cc3)o2)cc1 ?
Reply | inactive

Ask | Hi, sorry to bother you, what did the test record for CN(C)CC#Cc1ccc2ncc(C#N)c(Nc3ccc(F)c(Cl)c3)c2c1 ?
Reply | inactive

Ask | Hi, sorry to bother you, what did the test record for COc1ccc(/C=C(\C#N)n2nnc3c(F)cccc32)cc1 ?
Reply | inactive

Ask | Hi, sorry to bother you, what did the test record for CN1CCN(c2ccc(-c3ccc4ncc(C#N)c(Nc5ccc(F)c(Cl)c5)c4c3)cn2)CC1 ?
Reply | inactive

Entry source: PubChem BioAssay (NCI)
